Tested on: phosphorylation of eIF4E at ser209 in MV4.11 cell line
test: MNK cellular activity phospho-eIF4E detection assay (Alphascreen Surefire)
Assay type: cell-based
condition_parameters: Homo sapiens; MV4.11 cell line, phospho-eIF4E (ser209) Alphascreen Surefire; read-out: P(IC50) elF4E (converted)
Procedure: The assay detection is based on the formation of sandwich antibody complexes coupled to donor and acceptor beads. […] Cells were then lysed and the Alphascreen Surefire protocol followed according to manufacturer's recommendations. […] 3 ul Donor beads (1:20 dilution in kit dilution buffer) were then added, shaken 150 rpm for 2 min and incubated for a further 1.5 hr at room temperature after which the plates were read on Pherastar FS using Alphascreen optic module. […]
Hi there, I'd appreciate the recorded IC50 for every entry that follows.
Give a bare numeral; the unit µM is implied.

The value of IC50 measured for the compound `O=C(NCC1CCNCC1)c1nc2c(N3c4ccccc4C[C@@H]3CO)ncnc2s1` turned out to be 0.2

Documented IC50 of `CO[C@@H]1CCC[C@H](Oc2cc(F)ccc2Nc2ncnc3sc(C(=O)NCC4CCNCC4)nc23)C1` : 0.0794

What the record says about `O=C(NCC1CCNCC1)c1nc2c(Nc3ccccc3-c3ccco3)ncnc2s1` : IC50 is 0.316

The recorded IC50 for entry `CC(C)Oc1cc(F)ccc1Nc1ncnc2sc(C(=O)NC3CCS(=O)(=O)CC3)nc12` equals 0.0794

For this compound ( `CNCCCNC(=O)c1nc2c(N3CC(C)(C)c4ccccc43)ncnc2s1` ), measured IC50 is 0.00501

Data point: `O=C(NCC1CCNCC1)c1nc2c(N3CCc4ccccc43)ncnc2s1` ; IC50 = 0.00794

In plain terms, `CNCCNC(=O)c1nc2c(N3CCc4cc(F)ccc43)ncnc2s1` has a documented IC50 of 0.0158

Looking up `CC(C)Oc1cc(F)ccc1Nc1ncnc2sc(C(=O)NCCCN3CCCC3)nc12` , I found its IC50 recorded as 0.0398

meta.source: patent US10669284B2
